assay: Selectivity index, ratio of CC50 for cytotoxicity against human MT-4 cells to EC50 for inhibition of HIV-1 p66/51 reverse transcriptase E138K mutant; assay type: toxicity, cell-based; settings: read-out: Ratio CC50/EC50
Reported selectivity ratio values for the following compounds.
Measurement type: selectivity ratio

>>> df
                                        smi  inequality_symbol  data_value
0  N#Cc1ccc(Nc2nccc(N(CCCO)c3c(F)cc(-c4ccc(C#N)cc4)cc3F)n2)cc1                  =        3110
1  CN(c1ccnc(Nc2ccc(C#N)cc2)n1)c1c(F)cc(-c2ccc(C#N)cc2)cc1F                  =        4450
2  Cc1cnc(Nc2ccc(C#N)cc2)nc1Nc1c(F)cc(-c2ccc(C#N)cc2)cc1F                  >       34200
3  CCS(=O)(=O)N(c1ccnc(Nc2ccc(C#N)cc2)n1)c1c(F)cc(-c2ccc(C#N)cc2)cc1F                  >        3460
4  CCN(c1ccnc(Nc2ccc(C#N)cc2)n1)c1c(F)cc(-c2ccc(C#N)cc2)cc1F                  =        4130
5  N#Cc1ccc(Nc2nccc(N(CCO)c3c(F)cc(-c4ccc(C#N)cc4)cc3F)n2)cc1                  =         701
6  CCCN(c1ccnc(Nc2ccc(C#N)cc2)n1)c1c(F)cc(-c2ccc(C#N)cc2)cc1F                  =        6090
